Target: T1, TbrCan2 E341A (Thermoanaerobacter brockii subsp. …, UniProt E8URK0 1-437, E341A)
T1 sequence: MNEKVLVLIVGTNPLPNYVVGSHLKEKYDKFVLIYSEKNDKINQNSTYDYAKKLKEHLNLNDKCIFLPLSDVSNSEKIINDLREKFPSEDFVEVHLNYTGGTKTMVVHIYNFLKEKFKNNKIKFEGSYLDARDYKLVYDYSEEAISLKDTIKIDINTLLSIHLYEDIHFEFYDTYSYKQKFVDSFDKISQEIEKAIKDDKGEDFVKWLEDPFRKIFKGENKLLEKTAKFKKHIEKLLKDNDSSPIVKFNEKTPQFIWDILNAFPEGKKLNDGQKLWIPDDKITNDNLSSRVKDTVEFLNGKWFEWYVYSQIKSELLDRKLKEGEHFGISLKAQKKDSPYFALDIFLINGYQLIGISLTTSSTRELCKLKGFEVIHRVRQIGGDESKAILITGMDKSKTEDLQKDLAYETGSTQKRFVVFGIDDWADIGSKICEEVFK
Assay: EMSA
measurement-name: binding result

// worked examples, binding result included
binder="UUUUUUUUUUUUUUU (ssRNA) [rU15]" result_value="no binding"
binder="TTTTTTTTTTTTTTT (ssDNA) [dT15 (dKJ62)]" result_value="no binding"
binder="TTTTTTTGGGTTTTTTTTTTTTTTTTTTTT (ssDNA) [T7-G3-T20 DNA (dKJ72)]" result_value="no binding"
binder="UUUUUUUGGGUUUUUUUUUUUUUUUUUUUU (ssRNA) [U7-G3-U20 RNA (rKJ10)]" result_value="no binding"

# evaluate next
input: Using the record for AAAAAAAAAAAAAAA (ssRNA) [rA15] , report its binding result.
output: binds
